# Tested on: NGF
# Protocol details: Enhancing activity for NGF production in L-M cells (NGF in culture medium by enzyme immunoassay)
# Format: cell-based, murine
# Conditions: Concentration of Sample 2 mM, 20 hours, control = 100%
Below, each entry is listed alongside its reported Amount of NGF Production (%).
Please state the value followed by its unit.

Here's what some known entries look like.
Compound: CC(=O)OC1COC(OC2C(O)COC(OC3C(O)C(C)(C)CC4C5=CCC6C7(C)CCC(OC8OC(C(=O)O)C(O)C(O)C8OC8OC(CO)C(O)C(O)C8OC8OC(CO)C(O)C(O)C8O)C(C)(CO)C7CCC6(C)C5(C)CCC43C)C2O)C(O)C1OC(C)=O (centres unmarked) [Compound f]
Amount of NGF Production (%): 218.5%

Compound: C[C@@H]1O[C@@H](O[C@H]2[C@H](O[C@H]3[C@H](O[C@H]4CC[C@@]5(C)[C@@H](CC[C@]6(C)[C@@H]5CC=C5[C@@H]7CC(C)(C)C[C@@H](O)[C@]7(C)CC[C@]56C)[C@@]4(C)CO)O[C@H](C(=O)O)[C@@H](O)[C@@H]3O)O[C@H](CO)[C@H](O)[C@@H]2O)[C@H](O)[C@H](O)[C@H]1O [Compound j]
Amount of NGF Production (%): 212.5%

Compound: CC1(C)CC(=O)C2(C)CCC3(C)C(=CCC4C5(C)CCC(OC6OC(C(=O)O)C(O)C(O)C6OC6OC(CO)C(O)C(O)C6OC6OC(CO)C(O)C(O)C6O)C(C)(CO)C5CCC43C)C2C1 (centres unmarked) [Compound k]
Amount of NGF Production (%): 456.3%

Compound: CC(=O)OC1COC(OC2C(O)COC(OC3C(O)C(C)(C)CC4C5=CCC6C7(C)CCC(OC8OC(C(=O)O)C(O)C(O)C8OC8OC(CO)C(O)C(O)C8OC8OC(CO)C(O)C(O)C8O)C(C)(CO)C7CCC6(C)C5(C)CCC43C)C2O)C(O)C1O (centres unmarked) [Compound c]
Amount of NGF Production (%): 323.7%

Field: next compound
Ask: # lookup: Amount of NGF Production (%) of CC(=O)OC1C(OC2C(O)COC(OC3C(O)C(C)(C)CC4C5=CCC6C7(C)CCC(OC8OC(C(=O)O)C(O)C(O)C8OC8OC(CO)C(O)C(O)C8OC8OC(CO)C(O)C(O)C8O)C(C)(CO)C7CCC6(C)C5(C)CCC43C)C2O)OCC(O)C1O (centres unmarked) [Compound a]
Result: 212.6%
